meta.source: the supplement of paper PMC10307832

test system: EPLC-272H; assay: relative viability (nuclei count vs DMSO), 5 days (fraction); higher = more cells survive; details: first compound 2.53 µM
Measurement Label: relative viability
Response field accepts a number only; no unit should be typed.

Field request: relative viability | item: COc1nc(C)cnc1NS(=O)(=O)c1cccnc1-c1ccc(-c2nnco2)cc1 [Zibotentan] + COc1cc2c(Oc3ccc(NC(=O)C4(C(=O)Nc5ccc(F)cc5)CC4)cc3F)ccnc2cc1OCCCN1CCOCC1 [Foretinib] (partner 0.25 µM) 0.787

Form field: reported relative viability of COc1nc(C)cnc1NS(=O)(=O)c1cccnc1-c1ccc(-c2nnco2)cc1 [Zibotentan] + CC1(C)CCC(c2ccc(Cl)cc2)=C(CN2CCN(c3ccc(C(=O)NS(=O)(=O)c4ccc(N[C@H](CCN5CCOCC5)CSc5ccccc5)c(S(=O)(=O)C(F)(F)F)c4)cc3)CC2)C1 [Navitoclax] (partner 0.5 µM) 1.4

Which relative viability value belongs to O=c1cc(-c2cccc3c2Sc2ccccc2S3)oc(N2CCOCC2)c1 + Cc1cc(Nc2cc(N3CCN(C)CC3)nc(Sc3ccc(NC(=O)C4CC4)cc3)n2)n[nH]1 [Tozasertib] (partner 0.1 µM) ? 0.237

Suppose we examine the molecule O=c1cc(-c2cccc3c2Sc2ccccc2S3)oc(N2CCOCC2)c1 + Cc1nc(NC(=O)N2CCC[C@H]2C(N)=O)sc1-c1ccnc(C(C)(C)C(F)(F)F)c1 [Alpelisib] (partner 2 µM) ; what relative viability value has been reported? 0.86

----------
tested on: BEN; experiment: relative viability (nuclei count vs DMSO), 5 days (fraction); higher = more cells survive; details: first compound 0.6325 µM
Kindly state relative viability for each of the entries shown.
Output spec: single numeric token, no unit.

Find the recorded relative viability belonging to COCC1(CO)C(=O)C2CCN1CC2 (centres undefined) [PRIMA-1MET] + COc1cccc2cc(-c3nc([C@H]4CC[C@H](C(=O)O)CC4)n4ncnc(N)c34)[nH]c12 [OSI-027] (partner 0.5 µM) and report it. 0.304

Given COCC1(CO)C(=O)C2CCN1CC2 (centres undefined) [PRIMA-1MET] + CS(=O)(=O)CCNCc1ccc(-c2ccc3ncnc(Nc4ccc(OCc5cccc(F)c5)c(Cl)c4)c3c2)o1 [Lapatinib] (partner 2 µM) , state its recorded relative viability. 0.774

I am curious: what relative viability value has been reported for COCC1(CO)C(=O)C2CCN1CC2 (centres undefined) [PRIMA-1MET] + C[C@@H](Oc1cc(-c2cnn(C3CCNCC3)c2)cnc1N)c1c(Cl)ccc(F)c1Cl [Crizotinib] (partner 1 µM) ? 0.88

I am curious: what relative viability value has been reported for COCC1(CO)C(=O)C2CCN1CC2 (centres undefined) [PRIMA-1MET] + Cc1nc(NC(=O)N2CCC[C@H]2C(N)=O)sc1-c1ccnc(C(C)(C)C(F)(F)F)c1 [Alpelisib] (partner 2 µM) ? 0.833

----------
system: NCI-H1666; assay: relative viability (nuclei count vs DMSO), 5 days (fraction); higher = more cells survive; conditions: first compound 0.6325 µM
Provide the recorded relative viability for the entries that follow.
Answer as a number with no unit attached.

Provide value of relative viability for this record tested with NCI-H1666: COCC1(CO)C(=O)C2CCN1CC2 (stereo unspecified) [PRIMA-1MET] + C[C@@H](Oc1cc(-c2cnn(C3CCNCC3)c2)cnc1N)c1c(Cl)ccc(F)c1Cl [Crizotinib] (partner 1 µM) 0.9

Notebook: pull reported relative viability for NCI-H1666, entry COCC1(CO)C(=O)C2CCN1CC2 (stereo unspecified) [PRIMA-1MET] + NC(=O)Nc1cc(-c2cccc(F)c2)sc1C(=O)N[C@H]1CCCNC1 [AZD7762] (partner 0.2 µM) 0.688

# query: relative viability | item COCC1(CO)C(=O)C2CCN1CC2 (stereo unspecified) [PRIMA-1MET] + CC(=O)Nc1cccc(-n2c(=O)n(C3CC3)c(=O)c3c(Nc4ccc(I)cc4F)n(C)c(=O)c(C)c32)c1 [Trametinib] (partner 0.02 µM) | system: NCI-H1666 0.815

# query: relative viability | item COCC1(CO)C(=O)C2CCN1CC2 (stereo unspecified) [PRIMA-1MET] + O=C(CCCCCCC(=O)Nc1ccccc1)NO [Vorinostat] (partner 1 µM) | system: NCI-H1666 0.915

// map COCC1(CO)C(=O)C2CCN1CC2 (stereo unspecified) [PRIMA-1MET] + N=C(N)NC(=N)NCCc1ccccc1 [Phenformin] (partner 250 µM) to recorded relative viability (system: NCI-H1666) 0.548

Checklist item: relative viability tested on NCI-H1666, entry COCC1(CO)C(=O)C2CCN1CC2 (stereo unspecified) [PRIMA-1MET] + COc1cc2c(Oc3ccc(NC(=O)C4(C(=O)Nc5ccc(F)cc5)CC4)cc3F)ccnc2cc1OCCCN1CCOCC1 [Foretinib] (partner 0.25 µM) , value? 0.906

----------
Could you please report measured relative viability for the items listed next?
test system: LOU-NH91; test: relative viability (nuclei count vs DMSO), 5 days (fraction); higher = more cells survive; conditions: first compound 0.3162 µM
Provide a numeric answer; units are not to be included.

Entry O=c1cc(N2CCOCC2)oc2c(-c3cccc4c3sc3ccccc34)cccc12 + Nc1nc2[nH]cc(CCc3ccc(C(=O)N[C@@H](CCC(=O)O)C(=O)O)cc3)c2c(=O)[nH]1 [Pemetrexed] (partner 0.2 µM) has what relative viability? 0.386

Which relative viability is listed for CCN(CC)CCCCNc1ncc2cc(-c3cc(OC)cc(OC)c3)c(NC(=O)NC(C)(C)C)nc2n1 + NC(=O)Nc1cc(-c2cccc(F)c2)sc1C(=O)N[C@H]1CCCNC1 [AZD7762] (partner 0.2 µM) ? 0.845

Reported relative viability for O=c1cc(N2CCOCC2)oc2c(-c3cccc4c3sc3ccccc34)cccc12 + CC1(C)CCC(c2ccc(Cl)cc2)=C(CN2CCN(c3ccc(C(=O)NS(=O)(=O)c4ccc(N[C@H](CCN5CCOCC5)CSc5ccccc5)c(S(=O)(=O)C(F)(F)F)c4)cc3)CC2)C1 [Navitoclax] (partner 0.5 µM) : what is it? 0.747

Consider the compound CCN(CC)CCCCNc1ncc2cc(-c3cc(OC)cc(OC)c3)c(NC(=O)NC(C)(C)C)nc2n1 + O=C(c1cc(Cc2n[nH]c(=O)c3ccccc23)ccc1F)N1CCN(C(=O)C2CC2)CC1 [Olaparib] (partner 8 µM) and give its measured relative viability. 0.952

----------
test system: NCI-H1944; assay: relative viability (nuclei count vs DMSO), 5 days (fraction); higher = more cells survive; details: first compound 0.253 µM
In plain terms, low relative viability, meaning strictly below 0.4, gives Condition met, and everything else gives Condition not met.

Below 0.4 on relative viability? Entry COc1nc(C)cnc1NS(=O)(=O)c1cccnc1-c1ccc(-c2nnco2)cc1 [Zibotentan] + CS(=O)(=O)N1CCN(Cc2cc3nc(-c4cccc5[nH]ncc45)nc(N4CCOCC4)c3s2)CC1 [Pictilisib] (partner 1 µM) Condition met

Does the reported relative viability of COc1nc(C)cnc1NS(=O)(=O)c1cccnc1-c1ccc(-c2nnco2)cc1 [Zibotentan] + Nc1ncn([C@H]2C[C@H](O)[C@@H](CO)O2)c(=O)n1 [Decitabine] (partner 2 µM) stay below 0.4? Condition not met

Could you please tell me whether relative viability recorded for O=c1cc(-c2cccc3c2Sc2ccccc2S3)oc(N2CCOCC2)c1 + COc1cc2c(Oc3ccc(NC(=O)C4(C(=O)Nc5ccc(F)cc5)CC4)cc3F)ccnc2cc1OCCCN1CCOCC1 [Foretinib] (partner 0.25 µM) is less than 0.4? Condition not met

# strict comparison: is reported relative viability < 0.4? input = COc1nc(C)cnc1NS(=O)(=O)c1cccnc1-c1ccc(-c2nnco2)cc1 [Zibotentan] + Cc1cc(Nc2cc(N3CCN(C)CC3)nc(Sc3ccc(NC(=O)C4CC4)cc3)n2)n[nH]1 [Tozasertib] (partner 0.1 µM) Condition met

Is it true that relative viability reported for O=c1cc(-c2cccc3c2Sc2ccccc2S3)oc(N2CCOCC2)c1 + CS(=O)(=O)N1CCN(Cc2cc3nc(-c4cccc5[nH]ncc45)nc(N4CCOCC4)c3s2)CC1 [Pictilisib] (partner 1 µM) is less than 0.4? Condition met

Hello, I'm reviewing records and need to know if relative viability of COc1nc(C)cnc1NS(=O)(=O)c1cccnc1-c1ccc(-c2nnco2)cc1 [Zibotentan] + CC(=O)Nc1cccc(-n2c(=O)n(C3CC3)c(=O)c3c(Nc4ccc(I)cc4F)n(C)c(=O)c(C)c32)c1 [Trametinib] (partner 0.02 µM) is below 0.4. Could you check? Condition met

Determine if COc1nc(C)cnc1NS(=O)(=O)c1cccnc1-c1ccc(-c2nnco2)cc1 [Zibotentan] + C[C@@H](Oc1cc(-c2cnn(C3CCNCC3)c2)cnc1N)c1c(Cl)ccc(F)c1Cl [Crizotinib] (partner 1 µM) shows relative viability strictly lower than 0.4. Condition not met

Bench note: check whether COc1nc(C)cnc1NS(=O)(=O)c1cccnc1-c1ccc(-c2nnco2)cc1 [Zibotentan] + CS(=O)(=O)CCNCc1ccc(-c2ccc3ncnc(Nc4ccc(OCc5cccc(F)c5)c(Cl)c4)c3c2)o1 [Lapatinib] (partner 2 µM) shows relative viability below 0.4 Condition not met

Regarding O=c1cc(-c2cccc3c2Sc2ccccc2S3)oc(N2CCOCC2)c1 + CC(=O)c1c(C)c2cnc(Nc3ccc(N4CCNCC4)cn3)nc2n(C2CCCC2)c1=O [Palbociclib] (partner 0.5 µM) , kindly confirm whether its relative viability is beneath 0.4. Condition met
